These measurements were taken from PubChem BioAssay (Tox21).

target: 5-hydroxytryptamine receptor 2A (Homo sapiens)
procedure details: 5-hydroxytryptamine receptor 2A (HTR2A) small molecule antagonists, cell-based qHTS assay (AID 1963586); note: nearly all actives have a fitted effect of over 45% in size
conditions: HTR2A-CHO cells, DOI-induced calcium flux, fluorescence; series mostly up to 61.5 µM
Results filed as inconclusive are left out. Activity calls are given as the source filed them. Calls come from the whole dose curve.
// one of active, inactive, no free text

Solved entries (count: 8):
compound	target	class label
ClC1=C(Cl)[C@]2(Cl)[C@H]3[C@H]([C@@H]4C=C[C@H]3C4)[C@@]1(Cl)C2(Cl)Cl	5-hydroxytryptamine receptor 2A (Homo sapiens)	inactive
[Cl][Hg][c]1ccccc1	5-hydroxytryptamine receptor 2A (Homo sapiens)	inactive
Oc1ccc2c3c1O[C@H]1[C@@H](O)C=C[C@H]4[C@@H](C2)NCC[C@@]341	5-hydroxytryptamine receptor 2A (Homo sapiens)	inactive
COc1cc(CCN)cc(OC)c1OC	5-hydroxytryptamine receptor 2A (Homo sapiens)	active
N#CN	5-hydroxytryptamine receptor 2A (Homo sapiens)	inactive
O=S(=O)(c1ccc(Cl)cc1)c1ccc(Cl)cc1	5-hydroxytryptamine receptor 2A (Homo sapiens)	active
C[C@H]1[C@@H]2Cc3ccc(O)cc3[C@@]1(C)CCN2C	5-hydroxytryptamine receptor 2A (Homo sapiens)	inactive
CCCCS(=O)(=O)Cl	5-hydroxytryptamine receptor 2A (Homo sapiens)	inactive

Challenge: Dear colleague, could you share the recorded outcome for Cc1c(Cl)c(=O)oc2cc(OP(=O)(OCCCl)OCCCl)ccc12 when you have a moment?
Response given: inactive

Challenge: # fetch the recorded call for O=[N+]([O-])c1cc(C(F)(F)F)cc([N+](=O)[O-])c1Cl here
Response given: inactive

Challenge: For O=S1(=O)OCC2C(CO1)C1(Cl)C(Cl)=C(Cl)C2(Cl)C1(Cl)Cl (stereo not drawn) , which call appears in the assay record?
Response given: inactive

Challenge: How was Clc1ccccc1 classified in this test?
Response given: inactive

Challenge: Could you kindly confirm the outcome this assay logged for CC(C)(Cl)[N+](=O)[O-] ?
Response given: inactive

###

procedure details: p53 small molecule agonists, cell-based qHTS assay with rat liver microsomes: qHTS cell viability counter screen (AID 1963580); note: nearly all actives have a fitted effect of over 45% in size
conditions: p53RE-bla HCT-116 + rat microsomes, ATP viability, 16 h; series mostly up to 66 µM
Inconclusive results are not listed. Calls of active or inactive are those of the source. The call rests on the fitted dose curve.
Give one outcome, nothing more. List: 1 = active, -1 = inactive

compound	class label
N#CC(C#N)=Cc1ccc(O)c(O)c1	-1
CCCCCCCCCCCCCC[P+](CCCCCC)(CCCCCC)CCCCCC (tested in a mixture with another compound)	1
NCCCNCCCN	-1

Kindly consider the entry below.
Challenge: Which outcome did this test record for the compound C[C@H]1CC[C@@H]2[C@@H](C)[C@H]3[C@H](C[C@H]4[C@@H]5CC=C6CC(O[C@@H]7O[C@H](CO)[C@H](O)[C@H](O[C@@H]8O[C@H](CO)[C@@H](O)[C@H](O)[C@H]8O)[C@H]7O[C@H]7O[C@@H](C)[C@H](O)[C@@H](O)[C@H]7O)CC[C@]6(C)[C@H]5CC[C@]34C)N2C1 (some centres undefined) ?
Response given: -1

###

target: D(2) dopamine receptor (Homo sapiens)
procedure details: Dopamine D2 receptor (DRD2) small molecule antagonists, cell-based qHTS assay (AID 1963595); note: % is set by controls: 0 for no effect and ±100 for the full control effect
conditions: HEK293-DRD2 cAMP HTRF antagonist mode; series mostly up to 92.4 µM
Inconclusive results are not listed. The source made the active and inactive calls. Calls follow the shape of the dose curve; as a rule, active = well fitted inhibition curve with a large enough effect in the signal ratio in the repeat runs, with a control signal flat; inconclusive = weak or mixed curves, or effect the other way; inactive = flat fitted curve, though single readings scatter; the % refers to the signal ratio.
Permitted responses: active, inactive

Worked examples, 3 molecules total:
molecule	class label
O=C(CCl)NCO	inactive
c1ccc2c(c1)[nH]c1cnccc12	inactive
Clc1ccccc1	inactive

Challenge: # lookup: test call for CCc1cccc(C)c1N(C(=O)CCl)[C@@H](C)COC
Response given: inactive

Challenge: Can you look up the reported call for CCOP(=S)(Oc1ccc([N+](=O)[O-])cc1)c1ccccc1 (centres undefined) for me?
Response given: inactive

###

procedure details: p53 small molecule agonists, cell-based qHTS assay (AID 1963582); for activation: % is set by controls: 0 for no effect and ±100 for the full control effect
conditions: HCT-116 p53RE-bla reporter, beta-lactamase FRET ratio, 16 h; series mostly up to 66 µM
Records with an inconclusive call do not appear. Activity calls are given as the source filed them. The call rests on the fitted dose curve; in most records, active means well fitted activation curve with a large enough effect in the signal ratio in the repeat runs (not every such curve was filed as active); inconclusive means weak or mixed curves; inactive means flat fitted curve, though single readings scatter; the % refers to the signal ratio.
Assign a class; possible classes are Yes for active, No for inactive

compound	class label
CC(=O)/C=C/c1ccc2c(c1)OCO2	Yes
CCOP(=S)(OCC)SCS(=O)(=O)CC	No
C[C@@H]1CC[C@H]2[C@@H](C)C(=O)O[C@@H]3O[C@@]4(C)CC[C@@H]1[C@]32OO4	No
C[C@]12Cc3cn[nH]c3C[C@@H]1CC[C@@H]1[C@@H]2CC[C@@]2(C)[C@H]1CC[C@]2(C)O	No
N#Cc1c(Cl)cccc1Cl	No
CCN(CC)c1nc(C)cc(OP(=S)(OC)OC)n1	No
CCN(CC)CCOC(=O)C(O)(c1ccccc1)c1ccccc1	No
O=[N+]([O-])c1ccc(CCl)cc1	No
Clc1ccccc1-c1ccccc1Cl	No
CCCCC(=O)Cl	No

Challenge: # fetch the recorded call for CCC(C)(C)C(=O)OC1=C(c2ccc(Cl)cc2Cl)C(=O)OC12CCCCC2 here
Response given: No

Challenge: Recorded test call requested for COP(N)(=S)Oc1ccccc1C(=O)OC(C)C (centres undefined)
Response given: No

Challenge: Call for entry O=C1CC[C@@]2(O)[C@H]3Cc4ccc(O)c5c4[C@@]2(CCN3CC2CC2)[C@H]1O5 :
Response given: No

Challenge: Could you check what this test reported for CC(C)N(Cc1ccccc1)C(=O)C(C)(C)C ?
Response given: No

###

target: 5-hydroxytryptamine receptor 2A (Homo sapiens)
procedure details: 5-hydroxytryptamine receptor 2A (HTR2A) small molecule agonists, cell-based qHTS assay (AID 1963587); note: nearly all actives have a fitted effect of over 30% in size
conditions: HTR2A-CHO cells, calcium flux fluorescence, agonist mode; series mostly up to 76.8 µM
Records with an inconclusive call do not appear. Calls of active or inactive are those of the source. Calls come from the whole dose curve.
In this exercise, the only acceptable responses are 1 (active), -1 (inactive)

Recorded results for 8 compounds are shown here.
compound	class label
CN1CC[C@]23c4c5ccc(O)c4O[C@H]2[C@@H](O)C=C[C@H]3[C@H]1C5	-1
COC1=CC(=O)O[C@@H](/C=C/c2ccc3c(c2)OCO3)C1	-1
CC(C)(C)OO	-1
C=CCOC(=O)C(C)(C)OC(=O)c1cc(-n2c(=O)cc(C(F)(F)F)n(C)c2=O)ccc1Cl	-1
CCCSP(=O)(OCC)Oc1ccc(Br)cc1Cl (configuration not stated)	-1
CN(C)C(=O)Nc1cccc(OC(=O)NC(C)(C)C)c1	-1
NNC(N)=O	-1
CC(C)NCC(O)c1ccc([N+](=O)[O-])cc1 (configuration not stated)	-1

Challenge: So what was the verdict on O=c1ssc(Cl)c1Cl in this test?
Response given: -1

Challenge: What classification did Cc1c(F)c(F)c(COC(=O)C2C(/C=C(\Cl)C(F)(F)F)C2(C)C)c(F)c1F (configuration not stated) end up with in this test?
Response given: -1

Challenge: Called result for CS(=O)(=O)c1ccc(C(=O)C2C(=O)CCCC2=O)c(Cl)c1COCC(F)(F)F
Response given: -1

Challenge: Hi, do you know how O=[N+]([O-])O.O=[N+]([O-])O.[Cd] came out in this test?
Response given: 1

###

procedure details: cAMP Responsive Elements (CRE) small molecule antagonists, cell-based qHTS assay (AID 1963591); note: % is set by controls: 0 for no effect and ±100 for the full control effect
conditions: CRE-bla HEK293T, beta-lactamase FRET ratio; series mostly up to 92.4 µM
Results filed as inconclusive are left out. The source made the active and inactive calls. Calls come from the whole dose curve; as a rule, active = well fitted inhibition curve with a large enough effect in the signal ratio in the repeat runs (not every such curve was filed as active); inconclusive = weak or mixed curves, or effect the other way; inactive = flat fitted curve, though single readings scatter; the % refers to the signal ratio.
Tick one outcome: 1 (active), 0 (inactive)

Use the examples below as a reference point.
compound	class label
[O-][Cl+3]([O-])([O-])O	0
CCOP(=O)(N=C1SCCS1)OCC	0
C=C(C)[C@H]1CN[C@H](C(=O)O)[C@H]1CC(=O)O	0

Challenge: Dear colleague, could you share the recorded outcome for CCNP(=S)(OC)O/C(C)=C/C(=O)OC(C)C (stereo not drawn) when you have a moment?
Response given: 0

Challenge: Kindly provide the recorded test outcome for the following compound: O=c1oc2ccccc2c(O)c1Cc1c(O)c2ccccc2oc1=O
Response given: 0

Challenge: Just curious, what result did CN(N=O)c1ccc([N+](=O)[O-])cc1 get here?
Response given: 0

Challenge: Hi team, can someone confirm the assay call for COc1cc(CC#N)cc(OC)c1OC ?
Response given: 0

Challenge: What call does the record list for CN(C)C(=O)Nc1cccc(OC(=O)NC(C)(C)C)c1 ?
Response given: 0

Challenge: Give the logged outcome of this assay for the following compound: ClCc1ccc(Cl)cc1Cl
Response given: 0

###

target: 5-hydroxytryptamine receptor 2A (Homo sapiens)
procedure details: 5-hydroxytryptamine receptor 2A (HTR2A) small molecule antagonists, cell-based qHTS assay (AID 1963586); note: nearly all actives have a fitted effect of over 45% in size
conditions: HTR2A-CHO cells, DOI-induced calcium flux, fluorescence; series mostly up to 61.5 µM
Inconclusive results are not listed. Active and inactive are the calls of the source. Calls come from the whole dose curve.
Parameter call: string, one of active, inactive

compound	class label
CC1(C)COP(Oc2ccccc2)OC1	inactive

Please find the next compound below.
Challenge: Look up the recorded call for O=[N+]([O-])c1cccc2c([N+](=O)[O-])cccc12 in this test.
Response given: inactive
